Below is a list of entries, each paired with its recorded Percent Effect value.
system: Wolbachia pipientis; assay: Anti-Wolbachia Cell-Based Screen; assay type: functional; design: scale not given: in the data most compounds retested in dose-response had high values; conditions: 5 µM
Hit rate of the full screen: of about 48,000 compounds, about 13,000 (27%) showed an effect of 50% or more. Some of the results follow.

- COMPOUND: "CCOc1ccccc1OCC(=O)NCc1ncc(C)c(OC)c1C"
  Percent Effect / %: 8.111
- COMPOUND: "CC(=O)NC1CCN(c2ncnc3c2c(C)nn3C)C1 (configuration not stated)"
  Percent Effect / %: -10.72
- COMPOUND: "COc1c(C)cnc(CN2CCC(C(=O)N(C)C)CC2)c1C"
  Percent Effect / %: 2.904
- COMPOUND: "Cn1cc(C(=O)Nc2cccc(CCN3CCCC3)c2)ccc1=O"
  Percent Effect / %: -2.076
- COMPOUND: "CCC(=O)N(C)C1CCN(Cc2ncc(C)c(OC)c2C)CC1"
  Percent Effect / %: 9.191
- COMPOUND: "CSc1ccc(C(=O)C2CCCN(C(=O)Cn3cnnn3)C2)cc1 (configuration not stated)"
  Percent Effect / %: -23.42
- COMPOUND: "Cc1cccc(CN2C[C@@H]3CN(C(=O)c4ccsc4)C[C@@H]3C2=O)n1.O=C(O)C(F)(F)F"
  Percent Effect / %: -3.63
- COMPOUND: "COc1nc2c(cc1C(=O)N(C)Cc1[nH]nc3c1CCC3)CCC2"
  Percent Effect / %: 7.806
- COMPOUND: "CN(CCc1ccncc1)C1CCCN(Cc2noc(C3CC3)n2)C1 (configuration not stated)"
  Percent Effect / %: 107.5
- COMPOUND: "O=C(CCn1cncn1)N1CC[C@@H](c2ccc3ccccc3c2)[C@H](O)C1"
  Percent Effect / %: 2.781
- COMPOUND: "CC1CCN(CC(=O)NC(C#N)c2cnn(-c3ccccc3)c2)CC1 (configuration not stated)"
  Percent Effect / %: -3.926
- COMPOUND: "CS(=O)(=O)NCCCN1CCCC1c1ccccc1 (configuration not stated)"
  Percent Effect / %: -6.695

###

test system: Wolbachia pipientis; assay: Anti-Wolbachia Cell-Based Screen; format: functional; set-up: scale not given: in the data most compounds retested in dose-response had high values; settings: 5 µM
Out of some 48,000 compounds screened, about 13,000 (27%) showed an effect of 50% or more. This is one part of the list.

- COMPOUND: "Br.Cn1nccc1CN1CCOC(c2cccc(-c3cncnc3)n2)C1 (centres undefined)"
  SYSTEM_TESTED: "Wolbachia pipientis"
  Percent Effect [%]: 91.95
- COMPOUND: "COc1ccc2cc(C3CN(C(=O)COC(C)C)CCO3)ccc2c1 (centres undefined)"
  SYSTEM_TESTED: "Wolbachia pipientis"
  Percent Effect [%]: -0.3239
- COMPOUND: "O=S(=O)(NCc1ccccc1Cn1cncn1)N1CCCCC1"
  SYSTEM_TESTED: "Wolbachia pipientis"
  Percent Effect [%]: 112.9
- COMPOUND: "O=S(=O)(NCc1ccccc1Cn1cncn1)N1CCCCCC1"
  SYSTEM_TESTED: "Wolbachia pipientis"
  Percent Effect [%]: 113.8
- COMPOUND: "COCc1ccc(C(=O)N2CC[C@H](O)[C@@H](n3ccnc3)CC2)cc1"
  SYSTEM_TESTED: "Wolbachia pipientis"
  Percent Effect [%]: 113.2
- COMPOUND: "CC(C)Oc1ccc(C(=O)N2CC[C@H](O)[C@@H](n3ccnc3)CC2)cc1"
  SYSTEM_TESTED: "Wolbachia pipientis"
  Percent Effect [%]: 122.3
- COMPOUND: "CN(C)C1CCN(C(=O)NCc2ccccc2Cn2cncn2)CC1"
  SYSTEM_TESTED: "Wolbachia pipientis"
  Percent Effect [%]: -21.25
- COMPOUND: "COCc1ccc(C(=O)N2CCCN(C(=O)OCC(C)C)CC2)cc1"
  SYSTEM_TESTED: "Wolbachia pipientis"
  Percent Effect [%]: 6.896
- COMPOUND: "CNC(=O)c1ccc(C2CN(C(=O)COC)CCO2)nc1 (centres undefined)"
  SYSTEM_TESTED: "Wolbachia pipientis"
  Percent Effect [%]: -5.036
